Form field: Percent Effect (one value per entry).
# System: Sialic acid-binding Ig-like lectin 9 (Homo sapiens)
# Assay notes: Hs-Siglec9 ALPHAscreen SOP 20170721
# Design: scale not given: direction of the effect not stated beside the values
# Study conditions: 10 µM
# output: bare number, implied unit %

// worked examples, Percent Effect included
# Compound, System, Assay readout, Value measured
data = [
    ("CCN(Cc1ccco1)C(=O)c1cc(OC)c2c(c1)OCCO2", "Sialic acid-binding Ig-like lectin 9 (Homo sapiens)", "Percent Effect", 5.11),
    ("CCN(CC(=O)NC(C)C)S(=O)(=O)N1CCC(C)C1 (configuration not stated)", "Sialic acid-binding Ig-like lectin 9 (Homo sapiens)", "Percent Effect", -4.69),
]

input: Tell me measured Percent Effect for CC(C)n1c(C2CCCN(Cc3ccnn3C)C2)nc2ccccc21 (configuration not stated) please.
output: 4.6

input: Using the record for COC(=O)c1cc(C(=O)N2CCOCC2(C)C)n(-c2ccccc2)n1 , state its measured Percent Effect.
output: 4.64

input: Quickly give me recorded Percent Effect for COCC1CC2(CCN(C(=O)c3cccc(C)c3)CC2)CO1 (configuration not stated)
output: 6.28

input: Item Cc1cnn(CC2CCCCN2Cc2noc(C3CC3)n2)c1 (configuration not stated) : provide Percent Effect
output: 2.92

input: Specify measured Percent Effect for O=C1N(c2cccc(Cl)c2)Cc2nc(=O)n(Cc3cccc(F)c3)n21 .
output: 5.37

input: In one line, give reported Percent Effect of the entry COCC(O)CN(C)C(=O)NC1CCN(Cc2ccccn2)CC1 (configuration not stated) .
output: 1.62

input: Find the measured Percent Effect of Cn1ccnc1CN1CCN(CC(=O)NCC(F)(F)F)CC1 and report it.
output: 3.2

input: Return reported Percent Effect. Input compound: CN(CCn1cccn1)S(=O)(=O)N1CCCC1c1ccco1 (configuration not stated)
output: -0.333

input: For the compound COc1ccc(CN(C)Cc2nc3c(cnn3C)c(=O)[nH]2)cc1OC , report Percent Effect.
output: 3.18

input: Return Percent Effect for the following compound: O=S(=O)(NCC1(O)CCOc2ccccc21)c1cccs1 (configuration not stated)
output: -4.67

Values compiled from ChEMBL document CHEMBL3988442.
